The reported numbers originate from paper PMC9482650.

# TARGET DESC: GRID2IP_2, A4D2P6
# Sequence (A4D2P6 272-370): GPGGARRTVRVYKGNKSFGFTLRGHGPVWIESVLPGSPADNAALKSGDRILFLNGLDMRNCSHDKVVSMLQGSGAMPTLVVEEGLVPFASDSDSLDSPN
# TEST NAME: holdup assay
# Set-up: key: below the threshold = too weak to quantify, mostly under pKd 3.1 to 4
# DETAILS: plain residues with an end cap or a label only (N-terminal biotin on a linker: ado-ado)
QUANTITY KIND: pKd

# get_value(readout='pKd', item= DTTVPESEDL [MYOZ2, Q9NPC6] )
below the threshold

# get_value(readout='pKd', item= PLSPEQPTKL [TRIM50, Q86XT4] )
below the threshold

# get_value(readout='pKd', item= DDENIRTSDV [PLEKHA2, Q9HB19] )
4.19

# get_value(readout='pKd', item= PPYRHRNTVV [ERBB4, Q15303] )
below the threshold
